assay: inhibition of NOD2-driven NF-kB reporter – cell-based, luminescence, uHTS, HEK293 (AID 1566); details: HEK293 NOD2/NF-kB luciferase reporter, at 4 µM, stronger effect = higher value
About 1,800 (0.62%) of roughly 290,000 compounds were called active. The entries come from a sample that favours actives as a whole.
property.name: inhibition (%)
Your answer should be a plain number; it is taken to be in %.

Name the recorded inhibition for "Cc1cccc(-n2ncc3c(N(C)Cc4ccccc4)ncnc32)c1" . -120

Would you kindly share the measured inhibition for "CCCN1C=CC(=C2C(=O)c3ccccc3C2=O)C=C1" ? 83.7

Find the recorded inhibition belonging to "CCN1C=CC(=C2C(=O)c3ccccc3C2=O)C=C1" and report it. 54.1

What inhibition value was documented for this molecule, "CCc1noc(C)c1C(=O)OCC(=O)NC(=O)c1ccccc1" ? 2.8

Quick one: inhibition for "COc1ccnc(Oc2ccccc2)c1C(=O)N/C=N/OCc1ccccc1F" ? 2.7

What does the record list as inhibition for COc1ccc(CN2CCN(Cc3ccc4cc(F)ccc4n3)CC2CCO)c(C)c1C (centres undefined) ? -1.2

# query: inhibition of entry "CC1=CC(=C2C(=O)c3ccccc3C2=O)C=C(C)N1C" -61.9

# input molecule: "CN1C=CC(=C2C(=O)c3ccccc3C2=O)C=C1" ; wanted: its inhibition -99

I am curious: what inhibition value has been reported for "CC(=O)N1CCN(c2ccc(NC(=O)c3ccc(C(C)(C)C)cc3)cc2)CC1" ? 3.5

inhibition lookup needed for "CCN1C(=C2C(=O)c3ccccc3C2=O)C=Cc2ccccc21" , thanks. 2.2

Consider the molecule shown here: "CCCCCN1C=CC(=C2C(=O)c3ccccc3C2=O)C=C1" What is its recorded inhibition? 73.5

Suppose we examine the molecule "COc1ccc(-n2ncc3c(NC(C)C)ncnc32)cc1" ; what inhibition value has been reported? 13.8

Item "CCCCN1C(C)=CC(=C2C(=O)c3ccccc3C2=O)C=C1C" has what recorded inhibition? -61.1

Value lookup for inhibition; key = CC(NC(=O)C1CCCO1)c1ccccc1 (centres undefined) 3.6

GET /values?readout=inhibition&item= "Cc1cccc(-n2ncc3c(N(C)C4CCCCC4)ncnc32)c1" 72.3

What value of measured inhibition is listed for "COc1ccc(C)cc1NC(=O)CC(O)(C(F)(F)F)C(F)(F)F" ? 1.2

Record request: inhibition value, item "Cc1cccc(Cn2c(O)c(N=NC(=S)Nc3ccccc3F)c3ccccc32)c1" 18.9

Param item = CNC(C)C#Cc1ccc2c(=O)c3c(OC)cccc3oc2c1 (centres undefined) ; retrieve measured inhibition. -33.5

What value of inhibition has been reported for the following molecule? "COc1ccc(/C=N/NC(=O)CC#N)cc1Oc1nc(Cl)ncc1F" -4

Reference source: PubChem BioAssay AID1566
